- Test system: RXF 393 renal
- Experiment summary: NCI tumour cell line growth inhibition, 48 h
Known log10 of TGI of a selection of molecules
Assay readout: log10 of TGI (log10 of the value in µM)

INSERT INTO results (molecule, recorded_result) VALUES
  ('COC(CN1C=C(Sc2ccccc2)CC1)OC', 1.82),
  ('CCN(CC)Cc1sc2nc3ccccc3n2c1-c1ccc(OC)cc1', 1.99),
  ('C[C@@H]1O[C@@H](O[C@H]2CC[C@@]3(C)[C@H](CCC4[C@@H]3C(O)C[C@]3(C)[C@@H](c5ccc(=O)oc5)CC[C@]43O)C2)[C@H](O)[C@H](O)[C@H]1O (stereo not given in full)', -1.71),
  ('Cn1cc(-c2nonc2-c2cn(C)c3ccccc23)c2ccccc21', 1.34),
  ('COc1ccc(OC)c(Cn2cc3c(c2)-c2oncc2CC3)c1', 1.20);

====

- Test system: TK-10 renal
- Experiment summary: NCI tumour cell line growth inhibition, 48 h
Assay readout: TGI

INSERT INTO results (compound, recorded_result) VALUES
  ('CC(C)(C)CN1CCn2c(nc3c(N)nccc32)S1', '> 100 µM'),
  ('CC1(C)OCC(C(O)C2OC(C)(C)OC2/C=N\O)O1 (centres undefined)', '> 100 µM'),
  ('CC1OC(O[C@H]2/C=C/C=C/C=C/C=C/C=C/C=C/C=C/[C@H](C)[C@@H](O)[C@@H](C)[C@H](C)OC(=O)CC(O)CC(O)CCC(O)C(O)CC(O)C[C@]3(O)C[C@H](O)C(C(=O)O)C(C2)O3)C(O)[C@H](N)C1O (some centres undefined)', '5.31 µM'),
  ('C#CCOCC12C=CC(O1)C1C(=O)OCC12 (centres undefined)', '> 100 µM'),
  ('Cn1c2ccccc2n2c(=O)c3c(c(C#N)c12)CCCC3', '> 100 µM'),
  ('CCNC1=C(NC(=O)CC)C(=O)c2ccccc2C1=O', '> 100 µM'),
  ('Cn1cc(-c2nonc2-c2cn(C)c3ccccc23)c2ccccc21', '> 100 µM'),
  ('CCN(Cc1ccc(Cl)s1)c1ccc(CO)c(Cl)c1', '0.221 µM'),
  ('CC(C)(C)OC(=O)NCCC1CN(C(=O)c2ccccc2)c2ccccc21 (centres undefined)', '> 100 µM'),
  ('CCC[C@H](C)C[C@H](C)C[C@H](C)/C=C(\C)[C@@H](O)[C@@H](C)C(=O)CC', '38.3 µM'),
  ('CCn1c2ccccc2c2cc(/C=C(/C#N)C(N)=O)ccc21', '> 28.8 µM'),
  ('Cc1cc(N(CCC#N)CCC#N)ccc1/C=C1N=C(/C=C\c2ccccc2)N(c2ccc(Cl)cc2)C\1=O', '> 100 µM'),
  ('CC1OC(OC2C(OC(=O)[C@@H]3CC(C)(C)C[C@H]4C5=CC[C@@H]6[C@@]7(C)C[C@H](O)[C@H](OC8OC(CO)C(O)C(O)C8O)[C@@](C)(CO)[C@@H]7[C@H](O)C[C@@]6(C)[C@]5(C)CC[C@@]34C)OCC(O)C2O)C(O)C(O)C1O (some centres undefined)', '> 7.5 µM'),
  ('O=[N+]([O-])c1cc(S(=O)(=O)Oc2ccccc2)ccc1Cl', '25.1 µM'),
  ('CNc1ccc(N)cc1C(=O)N1CCC[C@H]1CO', '> 100 µM'),
  ('N#Cc1c(N)[nH]c2ccc(Sc3ccccc3)cc12', '20.8 µM'),
  ('OC(c1ccc(-c2ccccc2)cc1)C(F)(F)c1nc2ccccc2o1 (centres undefined)', '> 100 µM'),
  ('COc1ccc(N=C2C(=Nc3ccc(OC)cc3)N(c3ccccc3)C(=S)N2N=C=C2Sc3ccccc3N2C)cc1', '> 100 µM'),
  ('FC(F)(F)c1ccc2nc(Sc3ccccn3)cnc2c1', '> 100 µM');

====

- Tested on: HCT-15 colon
- Experiment summary: NCI tumour cell line growth inhibition, 48 h
Where a SMILES comes first, the peptide text is derived from it. Bridges are numbered along the chain shown (N, C = ends). Roman numbers before positions name the chains, in order. [ ]: non-standard residue; d: D form. The star is where a group is joined. Quinoxaline2carbonyl = O=C(c1cnc2ccccc2n1)*; NMeV = CN[CH](C(=O)O)C(C)C; NMeC = CN[CH](CS)C(=O)O
Assay readout: TGI

INSERT INTO results (molecule, recorded_result) VALUES
  ('BrCc1ccc(CBr)cc1', '> 75.2 µM'),
  ('COc1cccc(NC(=O)C(C#N)=C(SC)SC)c1', '> 100 µM'),
  ('COc1ccc(C2[C@@H](Cl)C(=O)N2c2cc(OC)c(OC)c(OC)c2)cc1Cl (stereo not given in full)', '> 100 µM'),
  ('Cc1ccc(/C(O)=C/C(=O)C(=O)NN=C(c2ccccc2)c2ccccc2)cc1', '> 100 µM'),
  ('CC(C)(C)c1cc(C2COC(c3cc(C(C)(C)C)c(O)c(C(C)(C)C)c3)CO2)cc(C(C)(C)C)c1O (stereo not given)', '> 100 µM'),
  ('CN(CC(N)=O)C(=O)N(CCCl)N=O', '> 100 µM'),
  ('CCN(c1cccc(NC(=S)Nc2ccccc2N(CC)c2cc(-c3ccccc3)no2)c1)c1cc(-c2ccccc2)no1', '> 100 µM'),
  ('CC1NC(=O)C(NC(=O)c2cnc3ccccc3n2)COC(=O)C(C(C)C)N(C)C(=O)C2CSSCC(C(=O)N(C)C(C(C)C)C(=O)OCC(NC(=O)c3cnc4ccccc4n3)C(=O)NC(C)C(=O)N2C)N(C)C1=O (stereo not given) (I: Quinoxaline2carbonyl-SA[NMeC][NMeV] / II: Quinoxaline2carbonyl-SA[NMeC][NMeV]; ester I:1-II:C, I:C-II:1; disulfide I:3-II:3; configuration not given here)', '0.365 µM'),
  ('O[C@H]1[C@H](O)[C@@H](O)[C@@]2(O)C[C@@H](O)[C@@H]1N2', '> 100 µM'),
  ('CCO/C=C1\N=C(c2ccccc2Br)OC1=O', '> 100 µM'),
  ('COc1ccc(C(=O)N2c3ccccc3Sc3ccccc32)c(OC)c1', '> 100 µM'),
  ('CCOc1cc(NC(C)=O)ccc1C(=O)NN1C(=O)C(Cl)C1c1ccco1 (stereo not given)', '46.6 µM'),
  ('FC(F)(F)c1ccc2nc(Sc3ccccn3)cnc2c1', '> 100 µM'),
  ('COc1cc2nc(NCCCCCNC(=O)c3ccco3)nc(N)c2cc1OC', '> 100 µM'),
  ('O=C(O)COc1c(Cl)cc(Cl)c2cccnc12', '> 100 µM');

====

- Test system: M14 melanoma
- Experiment summary: NCI tumour cell line growth inhibition, 48 h
Assay readout: TGI

INSERT INTO results (compound, assay_readout, recorded_result) VALUES
  ('CC1=CC(=O)C(O)C2(C)C1CC(O)C13COC4(C)C(OC(=O)C41)C(O)C23 (configuration not stated)', 'TGI', '15.4 µM'),
  ('COC(=O)c1c(O)ccc2c1C1(Cc3ccccc3C1=O)C(O)O2 (configuration not stated)', 'TGI', '52.2 µM'),
  ('COc1ccc(/C=C2\CN(C)C/C(=C\c3ccc(OC)c(OC)c3OC)C2=O)c(OC)c1OC', 'TGI', '0.283 µM'),
  ('Cc1cc(O)c(C(C)C)cc1C1(c2cc(C(C)C)c(O)cc2C)OC(=O)c2ccccc21', 'TGI', '3.15 µM'),
  ('O=C(CC(=O)Nc1ccccc1)N/N=C/c1cc(N=Nc2ccc(Br)cc2)ccc1O', 'TGI', '> 10 µM'),
  ('CC1(C)CCC[C@]2(C)[C@@H](C=O)C(C=O)=CC[C@@H]12', 'TGI', '33.7 µM'),
  ('CCN(Cc1ccc(Cl)s1)c1ccc(CO)c(Cl)c1', 'TGI', '34.3 µM'),
  ('CC(C)C1=CC23CCC4C(C)(C(=O)O)CCCC4(C)C2CC1C1C(=O)N(c2ccc(C(=O)O)cc2)C(=O)C13 (configuration not stated)', 'TGI', '> 100 µM'),
  ('O=C(O)CNC(=O)c1c2ccccc2nc2ccccc12', 'TGI', '> 100 µM'),
  ('O=C(NC1CCCC1=O)c1ccccc1 (configuration not stated)', 'TGI', '> 100 µM'),
  ('CNc1ccc(N)cc1C(=O)N1CCC[C@H]1CO', 'TGI', '> 100 µM'),
  ('Cc1ccc2c(=O)cc(-c3ccc(-c4ccccc4)s3)[nH]c2n1', 'TGI', '> 100 µM'),
  ('C[CH2][Pb]([CH2]C)([CH2]C)[O]C(=O)c1ccc2ccccc2n1', 'TGI', '> 10 µM'),
  ('COc1ccc(N=C2C(=Nc3ccc(OC)cc3)N(c3ccccc3)C(=S)N2N=C=C2Sc3ccccc3N2C)cc1', 'TGI', '> 100 µM'),
  ('COC(=O)c1nc(-c2ccccc2)oc1S(=O)(=O)n1nc(C)cc1N', 'TGI', '20 µM'),
  ('N#Cc1c(N)[nH]c2ccc(Sc3ccccc3)cc12', 'TGI', '3.5 µM'),
  ('CC(=O)c1c(C(F)(F)F)n([O-])c2ccc(C)cc2[n+]1=O', 'TGI', '8.88 µM'),
  ('CCC[C@H](C)C[C@H](C)C[C@H](C)/C=C(\C)[C@@H](O)[C@@H](C)C(=O)CC', 'TGI', '35.7 µM'),
  ('CCOC(=O)[C@H](Cc1ccc(O)cc1)N=C1[C@H]2CCC[C@]1(O)[C@@](C)([N+](=O)[O-])C2', 'TGI', '> 100 µM'),
  ('CCOc1cc(NC(C)=O)ccc1C(=O)NN1C(=O)C(Cl)C1c1ccco1 (configuration not stated)', 'TGI', '36.8 µM'),
  ('CC(C)(C)c1ccc(C(=O)Nc2sc3c(c2C(N)=O)CCC(=O)C3)cc1', 'TGI', '1.57 µM'),
  ('O=C(Nc1cccc(F)c1)c1cc2ccc(O)cc2oc1=Nc1ccccc1F', 'TGI', '17.4 µM'),
  ('Cn1cc(-c2nonc2-c2cn(C)c3ccccc23)c2ccccc21', 'TGI', '> 100 µM'),
  ('C=CCOC(=O)C1C2OC3(C(C(=O)OC)=C2C(=O)OC)c2ccccc2CCC13 (configuration not stated)', 'TGI', '> 10 µM'),
  ('C=C1CCC2[C@@H](CCC3[C@]2(C)CCC[C@]3(C)C(=O)OC)[C@@H]1CC=O (some centres not stated)', 'TGI', '40.2 µM'),
  ('[N-]=[N+]=C1C(=O)C2CC3CC(C2)CC1C3', 'TGI', '> 100 µM'),
  ('CN1CCC(n2cnc(-c3ccc(F)cc3)c2-c2ccnc(N)n2)CC1', 'TGI', '> 25 µM'),
  ('O=C1NC(=O)C(c2cccc(Cl)c2)=C1Nc1ccc(O)c(Cl)c1', 'TGI', '> 25 µM'),
  ('CCN1C(=O)N(CC)C2C1NN=c1s/c(=C3\C(=O)N(CCc4ccccc4)c4ccccc43)c(=O)n12 (configuration not stated)', 'TGI', '12.5 µM'),
  ('O=P1(Oc2ccccc2)C(c2ccccc2)C(c2ccccc2)=NN1c1ccccc1 (configuration not stated)', 'TGI', '39.6 µM'),
  ('CCCCCn1sc(=O)n(Cc2ccc(CNC(=O)OCc3ccc4cccc(O)c4n3)cc2)c1=O', 'TGI', '3.12 µM'),
  ('CCOC(=O)c1ccc(C(=O)C(C(C)=O)C(=O)OC(C)(C)C)[nH]1 (configuration not stated)', 'TGI', '> 100 µM'),
  ('CCOP(=O)(OCC)C(C)(CC)NC (configuration not stated)', 'TGI', '> 100 µM'),
  ('O=c1[nH]cnc2c(C3NC(CO)C(O)C3O)c[nH]c12 (configuration not stated)', 'TGI', '> 100 µM'),
  ('COC(=O)CC1NC(=O)C1C1(C)OCCO1 (configuration not stated)', 'TGI', '> 100 µM'),
  ('CN(C)CC1CCCC1=O (configuration not stated)', 'TGI', '3.46 µM'),
  ('COc1ccc2oc(=N)c(C(=O)Nc3ccccn3)cc2c1', 'TGI', '> 100 µM'),
  ('N#Cc1ccc(N=Cc2c([O-])ccc3ccccc23)cc1.[C-]#[O+].[C-]#[O+].[Ir]', 'TGI', '19 µM'),
  ('COC(=O)c1c(OC(C)=O)ccc2c1c1c(OC(C)=O)c3ccccc3c(OC(C)=O)c1n2Cc1ccccc1', 'TGI', '17.2 µM'),
  ('CCOC(=O)C(=O)Nc1cc(Cl)ccc1Cl', 'TGI', '> 100 µM'),
  ('CC(C)=CCC/C(C)=C/CC/C(C)=C/CC/C=C(\C)CC/C=C(\C)CCC(=O)Nc1ccn(C2OC(CO)C(O)C2(F)F)c(=O)n1 (configuration not stated)', 'TGI', '1.2 µM'),
  ('Cc1ccc(/C(O)=C/C(=O)C(=O)NN=C(c2ccccc2)c2ccccc2)cc1', 'TGI', '> 100 µM');
